src = the RNAGym collection of RNA variant scans (doi:10.1073/pnas.2313332121)

Listed next: entries and their corresponding polymerase ribozyme fitness (log ratio).
B1: TPR 5TU (parent)
chain: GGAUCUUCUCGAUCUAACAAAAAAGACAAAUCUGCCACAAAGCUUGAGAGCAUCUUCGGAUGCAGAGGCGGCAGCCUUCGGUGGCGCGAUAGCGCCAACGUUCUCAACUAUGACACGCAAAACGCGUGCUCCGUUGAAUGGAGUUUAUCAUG

# Variants of: B1
# experiment_notes: polymerase ribozyme fitness, log enrichment relative to wild type (log ratio); higher = more active; in vitro selection for triplet polymerase activity
Fewer inactive variants are shown than the library holds.

{"variant_annotation": "U53A C96U C105G G112C U146C", "polymerase ribozyme fitness (log ratio)": "≤ -4.2"}
{"variant_annotation": "C14A C125A", "polymerase ribozyme fitness (log ratio)": -1.75}
{"variant_annotation": "C57A U90A A91U A138U", "polymerase ribozyme fitness (log ratio)": "≤ -4.2"}
{"variant_annotation": "C51U A64C C79A C85U A142G", "polymerase ribozyme fitness (log ratio)": "≤ -4.2"}
{"variant_annotation": "A12C C38U C54U C76U U77G G84A U127A A138U", "polymerase ribozyme fitness (log ratio)": "≤ -4.2"}

Recorded polymerase ribozyme fitness (log ratio) of A73G C114U , please. -2.66

Then G65C C132G ? ≤ -4.2

Then A39U U53A C75G G86U U146G ? ≤ -4.2

Then C38G A40G A49G A60U C93A A121G ? ≤ -4.2

Then C95U ? -0.031

Then U44A A52C C54A G92A G141C ? ≤ -4.2
